Source: the supplement of paper PMC10065799

MEASURED TARGET: SHP2-C SH2
PROTOCOL SUMMARY: SH2 binding enrichment of the phosphorylated peptide, bacterial display (enrichment ratio); higher = better substrate or ligand; peptides without Tyr show the background
PARAMETER MEASURED: SH2 binding enrichment

Below, each entry is followed by its recorded SH2 binding enrichment result.
monomer_sequence="QTLEAYIRWNK [SPAST_Y604]" recorded_number=1.61
monomer_sequence="DVSKEYGHLLP [HRC_Y99]" recorded_number=0.581
monomer_sequence="LVPPRYARSEI [PKP2_Y194]" recorded_number=0.787
monomer_sequence="LTQRTYMSENA [GPAA1_Y49]" recorded_number=0.801

[I] EKQVAYCPSGK [ROS1_Y2323]
[II] IGKAGYTDKMV [ENO1_Y236_V240M]
I'm curious whether I or II has the smaller SH2 binding enrichment number. Which is it? Your answer should be the label attached to the chosen record.
I

====

System: c-Abl (mouse)
PROTOCOL SUMMARY: phosphorylation enrichment, bacterial display (enrichment ratio); higher = better substrate or ligand; peptides without Tyr show the background
PARAMETER MEASURED: phosphorylation enrichment
Respond numerically, and do not add a unit to the figure.

phosphorylation enrichment reported for this sequence GDEEDYFEIPG [EGFR_opt_F_2015] : 0.78

phosphorylation enrichment reported for this sequence SIVEDYRPPFY [ACVRL1_Y421_G416S] : 0.995

====

MEASURED TARGET: c-Src SH2
PROTOCOL SUMMARY: SH2 binding enrichment of the phosphorylated peptide, bacterial display (enrichment ratio); higher = better substrate or ligand; peptides without Tyr show the background
PARAMETER MEASURED: SH2 binding enrichment

monomer_sequence="PMFTKYGNSLL [RPGRIP1L_Y196]" parameter_measured="SH2 binding enrichment" recorded_number=0.749
monomer_sequence="LITSVYGCSRQ [TMPRSS6_Y290]" parameter_measured="SH2 binding enrichment" recorded_number=0.511

[A] LGSNTYPFLLM [SAG_Y120_T125M]
[B] YEEDSYVERSQ [RET_Y905_K907E]
I'm curious whether A or B has the smaller SH2 binding enrichment number. Which is it? Your answer should be the label attached to the chosen record.
A
(A: 0.427, B: 1.48)

====

MEASURED TARGET: Fes (UniProt P07332)
Sequence (P07332 whole entry, looked up): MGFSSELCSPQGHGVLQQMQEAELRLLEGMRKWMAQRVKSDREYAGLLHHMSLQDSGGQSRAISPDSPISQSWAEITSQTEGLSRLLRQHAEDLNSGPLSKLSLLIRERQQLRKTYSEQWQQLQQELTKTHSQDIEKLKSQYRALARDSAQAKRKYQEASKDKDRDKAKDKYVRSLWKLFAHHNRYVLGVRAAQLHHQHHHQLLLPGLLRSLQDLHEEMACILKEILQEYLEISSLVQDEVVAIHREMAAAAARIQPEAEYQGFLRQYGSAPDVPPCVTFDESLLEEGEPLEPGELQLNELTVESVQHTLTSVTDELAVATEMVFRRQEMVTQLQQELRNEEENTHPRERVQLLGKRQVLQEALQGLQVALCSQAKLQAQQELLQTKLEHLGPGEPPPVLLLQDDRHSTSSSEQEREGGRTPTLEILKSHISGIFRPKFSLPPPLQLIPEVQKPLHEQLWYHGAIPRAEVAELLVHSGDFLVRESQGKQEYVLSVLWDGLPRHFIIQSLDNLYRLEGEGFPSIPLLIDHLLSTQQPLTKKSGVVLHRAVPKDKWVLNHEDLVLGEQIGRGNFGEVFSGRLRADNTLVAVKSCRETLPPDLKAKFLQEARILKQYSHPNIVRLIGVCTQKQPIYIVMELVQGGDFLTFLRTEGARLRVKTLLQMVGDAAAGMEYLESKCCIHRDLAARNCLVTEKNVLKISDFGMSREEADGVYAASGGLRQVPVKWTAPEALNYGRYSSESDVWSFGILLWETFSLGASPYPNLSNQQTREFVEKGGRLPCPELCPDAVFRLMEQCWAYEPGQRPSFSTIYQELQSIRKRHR
PROTOCOL SUMMARY: phosphorylation enrichment, bacterial display (enrichment ratio); higher = better substrate or ligand; peptides without Tyr show the background
Listed here: items and their measured phosphorylation enrichment.
Respond numerically, and do not add a unit to the figure.

Below, each entry is followed by its recorded phosphorylation enrichment result.
monomer_sequence="PFRKLYESVKK [MKI67_Y241_W238R]" parameter_measured="phosphorylation enrichment" recorded_number=0.695
monomer_sequence="DESEDYRDTVV [CNNM3_Y456]" parameter_measured="phosphorylation enrichment" recorded_number=1.59
monomer_sequence="QAEELYFGKMG [YES1_Y159_W158L]" parameter_measured="phosphorylation enrichment" recorded_number=1.55
monomer_sequence="LLKMMYLMLDN [STAT1_Y203_K201M]" parameter_measured="phosphorylation enrichment" recorded_number=1.51
monomer_sequence="DEEYEYMNRRR [ERBB3_Y1199]" parameter_measured="phosphorylation enrichment" recorded_number=0.986
monomer_sequence="SISYDYCRVPM [BST2_Y8_T4I]" parameter_measured="phosphorylation enrichment" recorded_number=1.17

phosphorylation enrichment reported for this sequence RMGNLYDIDED [GRIN2A_Y1246] : 1.32

phosphorylation enrichment reported for this sequence ILLAGYLVMVI [SLC28A3_Y113] : 1.38

phosphorylation enrichment reported for this sequence VDTFWYKFLKR [EPM2A_Y86] : 1.18

phosphorylation enrichment reported for this sequence RFFTTYDTNGR [CLCA1_Y665_YF] : 0.951

====

MEASURED TARGET: Grb2 SH2 (UniProt P62993)
PROTOCOL SUMMARY: SH2 binding enrichment of the phosphorylated peptide, bacterial display (enrichment ratio); higher = better substrate or ligand; peptides without Tyr show the background
PARAMETER MEASURED: SH2 binding enrichment

Below, each entry is followed by its recorded SH2 binding enrichment result.
monomer_sequence="HTVEDYQAIVD [CCT7_Y263]" parameter_measured="SH2 binding enrichment" recorded_number=0.816
monomer_sequence="EPNSRYTFKLE [USH2A_Y3745_YF]" parameter_measured="SH2 binding enrichment" recorded_number=0.818
monomer_sequence="MGSYNYLGFAR [SPTLC2_Y178]" parameter_measured="SH2 binding enrichment" recorded_number=0.804
monomer_sequence="FGDTPYIPFRD [CDC14C_Y132]" parameter_measured="SH2 binding enrichment" recorded_number=0.809
monomer_sequence="ANQDDYISFRH [IMP4_Y226]" parameter_measured="SH2 binding enrichment" recorded_number=0.821

[A] AIYRRYSKFFD [SH3PXD2B_Y45]
[B] HLRAGYIIPLQ [GAA_Y822]
Select the item with the higher value of SH2 binding enrichment from the options A and B listed. Your answer should be the label attached to the chosen record.
B
(B: 1.66, A: 0.674)

[a] STEEQYRIRQV [EFHC1_Y115]
[b] CTTIHYSYMCN [TP53_Y234_N235S]
Select the item with the higher value of SH2 binding enrichment from the options a and b listed. Your answer should be the label attached to the chosen record.
b

====

MEASURED TARGET: EPHB1 (UniProt P54762)
Sequence (P54762 whole entry, looked up): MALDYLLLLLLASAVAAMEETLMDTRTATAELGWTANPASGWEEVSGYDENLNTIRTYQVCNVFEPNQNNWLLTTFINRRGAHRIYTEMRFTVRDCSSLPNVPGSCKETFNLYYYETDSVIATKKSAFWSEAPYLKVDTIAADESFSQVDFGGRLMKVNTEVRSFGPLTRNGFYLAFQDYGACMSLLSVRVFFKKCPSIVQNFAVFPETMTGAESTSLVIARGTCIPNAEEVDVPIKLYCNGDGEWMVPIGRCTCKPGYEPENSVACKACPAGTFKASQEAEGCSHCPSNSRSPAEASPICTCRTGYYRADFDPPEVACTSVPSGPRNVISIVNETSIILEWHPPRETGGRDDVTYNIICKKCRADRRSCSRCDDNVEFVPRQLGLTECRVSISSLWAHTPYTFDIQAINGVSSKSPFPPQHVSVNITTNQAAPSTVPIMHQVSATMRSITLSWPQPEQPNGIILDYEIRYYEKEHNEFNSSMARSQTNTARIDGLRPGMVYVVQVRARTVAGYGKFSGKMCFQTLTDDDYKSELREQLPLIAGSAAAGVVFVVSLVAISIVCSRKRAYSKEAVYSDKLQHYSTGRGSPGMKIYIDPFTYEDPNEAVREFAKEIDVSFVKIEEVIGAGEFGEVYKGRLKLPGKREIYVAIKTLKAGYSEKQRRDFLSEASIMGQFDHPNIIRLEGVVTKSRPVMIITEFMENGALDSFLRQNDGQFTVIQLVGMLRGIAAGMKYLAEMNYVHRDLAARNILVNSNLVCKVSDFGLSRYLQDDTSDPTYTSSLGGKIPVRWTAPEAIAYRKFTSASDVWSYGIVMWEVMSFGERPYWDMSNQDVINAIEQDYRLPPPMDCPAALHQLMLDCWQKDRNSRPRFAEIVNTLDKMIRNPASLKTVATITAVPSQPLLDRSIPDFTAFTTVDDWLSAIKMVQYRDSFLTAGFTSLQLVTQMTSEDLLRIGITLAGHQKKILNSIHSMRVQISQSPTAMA
PROTOCOL SUMMARY: phosphorylation enrichment, bacterial display (enrichment ratio); higher = better substrate or ligand; peptides without Tyr show the background
PARAMETER MEASURED: phosphorylation enrichment
Respond numerically, and do not add a unit to the figure.

monomer_sequence="ADRSCYDLSCH [GARS1_Y467]" recorded_number=0.486
monomer_sequence="DGMADYSDPSY [CDC5L_Y459]" recorded_number=1.33

phosphorylation enrichment reported for this sequence RYVTRSIYNRE [HLA-DQB1_Y62_Y62S] : 0.226

phosphorylation enrichment reported for this sequence KLFFHYDPKLC [INSR_Y457_N458D] : 0.643

phosphorylation enrichment reported for this sequence PVQAAYKKVVA [HBB_Y131_Q132K] : 0.545

phosphorylation enrichment reported for this sequence IYLADYRIMEG [ALOX12B_Y318] : 1.26

phosphorylation enrichment reported for this sequence LPPREYVVVPS [CAPN1_Y494_G492R] : 3.78

phosphorylation enrichment reported for this sequence GGFTCYCDGKK [PROS1_Y266_YF] : 0.608

phosphorylation enrichment reported for this sequence SEEVNYATLTF [CLEC12B_Y7_T6N] : 1.98

phosphorylation enrichment reported for this sequence PTTKTYFPRFD [HBA1_Y43_H46R] : 0.493

phosphorylation enrichment reported for this sequence EQKKYSNAMKK [SCN5A_Y1495_Y1495S] : 0.326

phosphorylation enrichment reported for this sequence DVSKEYGHLLP [HRC_Y99] : 0.743

phosphorylation enrichment reported for this sequence PVRIAYDRPRG [SUGP2_Y985] : 0.464

phosphorylation enrichment reported for this sequence VRQQVYKKVEE [HADHA_Y283] : 0.378

phosphorylation enrichment reported for this sequence LAARYYNWVSF [FLT4_Y1231] : 1.09

phosphorylation enrichment reported for this sequence RGESFYQDTMN [RARS_Y338_R341T] : 2.62

phosphorylation enrichment reported for this sequence LEFGDYHPLKP [VPS35L_Y32] : 1.3

phosphorylation enrichment reported for this sequence LGSNGCKKLLK [SEPSECS_Y334_Y334C] : 0.611

phosphorylation enrichment reported for this sequence FFWDGYMPRQF [GSS_Y270_R267W_YF] : 0.601

phosphorylation enrichment reported for this sequence TFRPPYFHRNC [HGD_Y333_YF] : 0.522

====

MEASURED TARGET: Grb2 SH2 (UniProt P62993)
PROTOCOL SUMMARY: SH2 binding enrichment of the phosphorylated peptide, bacterial display (enrichment ratio); higher = better substrate or ligand; peptides without Tyr show the background
PARAMETER MEASURED: SH2 binding enrichment

Below, each entry is followed by its recorded SH2 binding enrichment result.
monomer_sequence="LITTLYIGFLG [KCNQ1_Y267]" parameter_measured="SH2 binding enrichment" recorded_number=1.06
monomer_sequence="EFENSCIFDIN [GAB1_Y83_Y83C]" parameter_measured="SH2 binding enrichment" recorded_number=1.18

[P] PRSRSYSSTSI [REPS2_Y462]
[Q] MHRRQYELLGG [GNAS_Y391_L388R]
I'm curious whether P or Q has the smaller SH2 binding enrichment number. Which is it? Your answer should be the label attached to the chosen record.
Q
(Q: 0.601, P: 0.893)

====

Listed here: items and their measured phosphorylation enrichment.
MEASURED TARGET: FGFR3 (UniProt P22607)
Sequence (P22607 whole entry, looked up): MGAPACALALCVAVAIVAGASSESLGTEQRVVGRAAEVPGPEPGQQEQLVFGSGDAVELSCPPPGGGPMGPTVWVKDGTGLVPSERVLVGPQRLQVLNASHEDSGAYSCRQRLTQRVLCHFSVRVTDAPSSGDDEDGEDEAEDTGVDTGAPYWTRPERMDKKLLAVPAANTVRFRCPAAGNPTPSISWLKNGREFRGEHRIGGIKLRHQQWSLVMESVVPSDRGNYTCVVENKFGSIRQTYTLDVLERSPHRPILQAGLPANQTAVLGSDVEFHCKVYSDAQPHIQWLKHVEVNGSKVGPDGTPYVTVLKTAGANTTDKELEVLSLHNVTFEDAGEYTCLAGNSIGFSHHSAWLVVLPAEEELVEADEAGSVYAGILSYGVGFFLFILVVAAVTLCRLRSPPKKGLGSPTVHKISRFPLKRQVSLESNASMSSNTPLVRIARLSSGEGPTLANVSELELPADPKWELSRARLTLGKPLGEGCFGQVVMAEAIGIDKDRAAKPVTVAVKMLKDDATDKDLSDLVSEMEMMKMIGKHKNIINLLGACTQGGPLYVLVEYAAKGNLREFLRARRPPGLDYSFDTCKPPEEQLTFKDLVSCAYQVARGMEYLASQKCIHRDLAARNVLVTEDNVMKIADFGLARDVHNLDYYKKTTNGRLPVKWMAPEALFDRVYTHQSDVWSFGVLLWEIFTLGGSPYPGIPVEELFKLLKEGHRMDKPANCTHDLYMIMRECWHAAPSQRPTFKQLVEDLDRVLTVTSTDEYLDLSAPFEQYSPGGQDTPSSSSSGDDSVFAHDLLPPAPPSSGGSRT
PROTOCOL SUMMARY: phosphorylation enrichment, bacterial display (enrichment ratio); higher = better substrate or ligand; peptides without Tyr show the background
Respond numerically, and do not add a unit to the figure.

Below, each entry is followed by its recorded phosphorylation enrichment result.
monomer_sequence="CGTPDYIDPEI [PRKCG_Y521_A523D]" parameter_measured="phosphorylation enrichment" recorded_number=1.85
monomer_sequence="GVKLTYGDAQS [SLC28A1_Y404_N409S]" parameter_measured="phosphorylation enrichment" recorded_number=0.453
monomer_sequence="KILGRYFETGS [PAX2_Y72_YF]" parameter_measured="phosphorylation enrichment" recorded_number=0.496
monomer_sequence="RHLQEYQDLLN [GFAP_Y349]" parameter_measured="phosphorylation enrichment" recorded_number=0.477

Alright, here's another sequence for you.
Assay FGFR3 (UniProt P22607), sample NVADHYRVFKP [ATP6V0D2_Y271_G272R_YF] , phosphorylation enrichment read: 0.608
